Parameter CRF1R EC50: see the listing below.
Target: corticotropin releasing factor 1 receptor
Test: cell-based or functional assay
Ends that are not written are not given here.
Entry rule: numbers only, all in nM.

# count of solved cases: 2
binder: ZGPPISIDLPFWLLRKMIEIEKQEKEKQQAANNRLLLDTI (C-terminal amide) [SEQ ID NO 217]
CRF1R EC50 / nM: 94.7
--
binder: ZGPPISIDLPFQLLRKIIEIEKQEKEKQQAANNALLLATI (C-terminal amide) [SEQ ID NO 362]
CRF1R EC50 / nM: 386

Q. Using the record for NDDPPISIDLPFLLLRNMIEMARIENEREQAGLNAKYLAEV-NH2 [SEQ ID NO 260] , report its CRF1R EC50.
A. 834
